Property: self-aminoacylation; scope: individual sequences
# Test system: biotinyl-Phe-oxazolone
# Measurement description: self-aminoacylation, catalytic enhancement (BFO) (fold over background); higher = more active; k-Seq, kA / k0A0; sequences stand for … in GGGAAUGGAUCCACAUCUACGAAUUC…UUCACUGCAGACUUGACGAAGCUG
This sample holds only a part of the variants without activity.
Quantity name: self-aminoacylation

{"Seq string": "AUACACCUAGGUCAUCGGUUG [Fam2.2 aminoacylation ribozyme variant]", "Assay value": 3.92}
{"Seq string": "AAGUUAGCUAAUAGUCACAAG [Fam3.1 aminoacylation ribozyme variant]", "Assay value": 3.83}
{"Seq string": "AAGUUUGUUAAUAGUCGCAAU [Fam3.1 aminoacylation ribozyme variant]", "Assay value": 2.29}
{"Seq string": "UAGUUUGUUAAUAGUCGCAAG [Fam3.1 aminoacylation ribozyme variant]", "Assay value": 3.23}
{"Seq string": "CCACACUUCAAGCAAACAGUC [Fam1B.1 aminoacylation ribozyme variant]", "Assay value": 1.09}
{"Seq string": "AAGGUUGCUAAUAGUCACAAG [Fam3.1 aminoacylation ribozyme variant]", "Assay value": 4.71}
{"Seq string": "AAGUUUGCUAAUCGUCGUAAG [Fam3.1 aminoacylation ribozyme variant]", "Assay value": 6.16}
{"Seq string": "AUUACCCUGCUGAUCGAGUGA [Fam2.1 aminoacylation ribozyme variant]", "Assay value": 10.4}
{"Seq string": "CCCCACUUCAGGCAAUCGGUC [Fam1B.1 aminoacylation ribozyme variant]", "Assay value": 9.29}
{"Seq string": "ACUCACCUAGGUUAUCGGGUG [Fam2.2 aminoacylation ribozyme variant]", "Assay value": 46}
{"Seq string": "CUACUUCGAACAUUCGGUCUG [Fam1A.1 aminoacylation ribozyme variant]", "Assay value": 0.576}
{"Seq string": "AUUGCCAUGGUCAUCGAGUGA [Fam2.1 aminoacylation ribozyme variant]", "Assay value": 53.5}
{"Seq string": "AUUACCCUGGUCAUCGAGUCU [Fam2.1 aminoacylation ribozyme variant]", "Assay value": 0.56}
{"Seq string": "CCCCACUUCACGCAAUCGGUC [Fam1B.1 aminoacylation ribozyme variant]", "Assay value": 7.33}
{"Seq string": "AUUUACCUAGUUCAUCGGGUG [Fam2.2 aminoacylation ribozyme variant]", "Assay value": 15.2}
{"Seq string": "AUUACCCUGGCCAGCGAGUGA [Fam2.1 aminoacylation ribozyme variant]", "Assay value": 18}
{"Seq string": "AAGUUUCCUAAUAGUCGCUAG [Fam3.1 aminoacylation ribozyme variant]", "Assay value": 2.18}
{"Seq string": "AUUACCUUGGUCAUCAAGUGA [Fam2.1 aminoacylation ribozyme variant]", "Assay value": 3.79}
